# target_or_test_system: UniProt P49840
# Sequence (P49840 whole entry): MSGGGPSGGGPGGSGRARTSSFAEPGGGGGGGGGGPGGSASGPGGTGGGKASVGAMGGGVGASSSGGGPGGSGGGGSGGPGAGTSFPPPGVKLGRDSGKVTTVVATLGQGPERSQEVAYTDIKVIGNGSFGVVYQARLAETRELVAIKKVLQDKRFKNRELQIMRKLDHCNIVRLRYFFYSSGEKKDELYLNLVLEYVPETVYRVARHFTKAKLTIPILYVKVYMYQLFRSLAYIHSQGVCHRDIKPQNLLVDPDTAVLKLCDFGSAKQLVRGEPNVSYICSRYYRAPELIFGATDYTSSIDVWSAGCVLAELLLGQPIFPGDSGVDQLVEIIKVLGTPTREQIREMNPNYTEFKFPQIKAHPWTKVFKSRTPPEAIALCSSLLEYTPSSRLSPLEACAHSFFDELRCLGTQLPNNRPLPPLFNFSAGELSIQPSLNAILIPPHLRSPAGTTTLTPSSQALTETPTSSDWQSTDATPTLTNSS
# experiment_description: GSK3α(h) kinase assay
# Format: biochemical
# condition_parameters: 3 μM; percent of control kinase activity
# Protocol: Six compounds (presumptive single agents) were tested against a panel of 50 kinases. The results are presented in Table 2; numbers for each kinase indicate the percent of control kinase activity in the presence of a 3μM concentration of the indicated agent. Agents that target two or more different kinases are useful in the methods of the invention as described elsewhere herein. […]
Measured Inhibitory activity (% of control), GSK3α(h) by item

| molecule | target_or_test_system | endpoint_result |
| --- | --- | --- |
| CCN1CCC[C@H]1COc1ccc2cc(-c3n[nH]c4ccc(-c5nc(CC(C)(C)C)n[nH]5)cc34)ccc2c1 | UniProt P49840 | 35 % of control |
| O=C(NC1CCCC1)c1cccc(-c2n[nH]c3ccc(-c4nc[nH]n4)cc23)c1 [CC007, reference compound] | UniProt P49840 | 18 % of control |
| COc1ccc2cc(-c3n[nH]c4ccc(-c5n[nH]c(CN6CCOCC6)n5)cc34)ccc2c1 | UniProt P49840 | 15 % of control |
| CC(C)(C)Cc1nc(-c2ccc3[nH]nc(-c4ccc5cc(OCc6ccccn6)ccc5c4)c3c2)n[nH]1 | UniProt P49840 | 65 % of control |
| Fc1ccc(-c2n[nH]c3ccc(-c4n[nH]c(C5CCCC5)n4)cc23)cc1 [CC006, reference compound] | UniProt P49840 | 38 % of control |

Note: attention shifts to another entry.
Give the reported value of Inhibitory activity (% of control), GSK3α(h) for this record: "CC(C)Cc1nc(-c2ccc3[nH]nc(-c4ccc5cc(OCCN6CCCC6)ccc5c4)c3c2)n[nH]1" 38 % of control
